Recorded pEC50 by entry
target: HEK cells stably transfected with tetracycline inducible hNR1 and hNR2A (Homo sapiens, UniProt Q05586+Q12879); construct: expressed in transfected cells; host or cells: HEK cells, stably transfected, tetracycline/doxycycline inducible; assay: Assay 1: Cell-Based Assay, cytosolic calcium response to positive allosteric modulators (with 30 μM glycine and 300 nM L-glutamate, EC30); settings: Table 3; cytosolic calcium response, with 30 μM glycine and 300 nM L-glutamate (EC30); — = no plateau was reached
Sequence (Q12879 23-1464, other chains not shown): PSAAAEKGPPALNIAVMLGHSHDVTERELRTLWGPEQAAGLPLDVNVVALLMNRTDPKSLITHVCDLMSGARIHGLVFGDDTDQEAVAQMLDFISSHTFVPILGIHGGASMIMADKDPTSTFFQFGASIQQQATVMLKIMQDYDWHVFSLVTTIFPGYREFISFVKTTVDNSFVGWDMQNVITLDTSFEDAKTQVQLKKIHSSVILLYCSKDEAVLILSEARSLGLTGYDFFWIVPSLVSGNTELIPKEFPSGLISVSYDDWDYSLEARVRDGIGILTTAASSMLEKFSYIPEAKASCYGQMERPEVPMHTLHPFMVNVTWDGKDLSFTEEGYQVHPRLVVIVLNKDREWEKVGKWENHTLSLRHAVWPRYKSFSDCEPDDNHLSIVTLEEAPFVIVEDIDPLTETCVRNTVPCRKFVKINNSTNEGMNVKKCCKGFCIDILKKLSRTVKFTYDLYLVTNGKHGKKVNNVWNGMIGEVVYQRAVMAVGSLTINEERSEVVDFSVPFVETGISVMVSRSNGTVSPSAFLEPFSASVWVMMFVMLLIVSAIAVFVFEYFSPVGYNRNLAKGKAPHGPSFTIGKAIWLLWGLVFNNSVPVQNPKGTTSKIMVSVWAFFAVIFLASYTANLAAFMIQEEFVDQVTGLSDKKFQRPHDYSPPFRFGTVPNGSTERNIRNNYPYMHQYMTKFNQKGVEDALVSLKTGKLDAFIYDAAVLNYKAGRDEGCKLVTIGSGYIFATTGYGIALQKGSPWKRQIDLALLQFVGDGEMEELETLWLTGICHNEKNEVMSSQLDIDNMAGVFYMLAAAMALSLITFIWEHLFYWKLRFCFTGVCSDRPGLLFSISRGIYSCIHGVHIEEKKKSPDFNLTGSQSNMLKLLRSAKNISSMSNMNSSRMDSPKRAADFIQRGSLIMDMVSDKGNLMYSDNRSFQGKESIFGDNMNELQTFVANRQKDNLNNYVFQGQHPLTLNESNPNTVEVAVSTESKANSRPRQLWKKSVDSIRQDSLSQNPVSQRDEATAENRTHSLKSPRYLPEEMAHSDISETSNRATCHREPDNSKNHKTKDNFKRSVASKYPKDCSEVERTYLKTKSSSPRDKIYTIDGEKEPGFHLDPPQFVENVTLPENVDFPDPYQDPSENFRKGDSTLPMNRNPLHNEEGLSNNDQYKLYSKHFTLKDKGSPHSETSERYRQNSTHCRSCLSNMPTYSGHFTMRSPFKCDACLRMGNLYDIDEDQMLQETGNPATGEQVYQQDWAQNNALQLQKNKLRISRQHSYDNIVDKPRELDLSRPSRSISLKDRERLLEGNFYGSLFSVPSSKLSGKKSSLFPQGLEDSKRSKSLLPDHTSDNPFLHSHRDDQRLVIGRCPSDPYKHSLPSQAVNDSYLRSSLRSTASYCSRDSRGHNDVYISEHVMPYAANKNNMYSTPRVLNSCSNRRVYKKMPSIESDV
pEC50: −log10 of the molar value.
PROPERTY MEASURED: pEC50

1. N#CC1CC1c1c(Cl)sc2nc(Cn3nc(C(F)(F)F)cc3Cl)cc(=O)n12 (centres unmarked) [compound 267]; 6.80
2. COc1cc(F)c(F)cc1Cc1cc(=O)n2c(C3CC3C#N)c(C)sc2n1 (centres unmarked); 5.89
3. Cc1sc2nc(Cn3nc(C(F)(F)F)cc3Cl)cc(=O)n2c1CC#N; 5.19
4. CCC(=O)c1c(C(F)(F)F)sc2nc(Cn3nc(C(F)(F)F)cc3Cl)cc(=O)n12; 4.86
5. COc1sc2nc(Cn3nc(C(F)(F)F)cc3Cl)cc(=O)n2c1Cl; 5.32
6. Cc1sc2nc(Cc3cccc(C#N)c3F)cc(=O)n2c1C1CC1C (centres unmarked); 6.33
7. CCNC(=O)c1c(OC)sc2nc(Cn3nc(C4CC4)cc3C(F)(F)F)cc(=O)n12; 5.16
8. CCN(Cc1cc(=O)n2c(/C=C/C(N)=O)c(C)sc2n1)c1ccc(F)cc1; 5.81
9. N#CC1CC1c1c(C(F)(F)F)sc2nc(Cn3nc(C(F)(F)F)cc3Cl)cc(=O)n12 (single isomer, unassigned) [compound 208]; 6.43
10. Cc1sc2nc(Cc3nn(C)cc3Cl)cc(=O)n2c1C1CC1C#N (centres unmarked); 5.45
11. CCNC(=O)c1c(C(C)=O)sc2nc(Cn3nc(Cl)cc3C(F)(F)F)cc(=O)n12; 5.63
12. Cc1sc2nc(Cn3nc(C(F)(F)F)cc3Cl)cc(=O)n2c1-c1ccn[nH]1; 5.69
13. C=C(CF)c1cccc(Cc2cc(=O)n3c(C(=O)NCC)c(C)sc3n2)c1F; 5.76
14. CCNC(=O)c1c(C)sc2nc(Cn3nc(C4CC4)cc3C(F)(F)F)cc(=O)n12; 5.59
15. CNC(=O)Cc1c(C)sc2nc(Cn3nc(C(F)(F)F)cc3C3CC3)cc(=O)n12; 5.65
16. Cc1sc2nc(Cn3nc(C(F)(F)F)cc3Cl)cc(=O)n2c1C(C)CO (centres unmarked); 5.53
17. Cc1sc2nc(Oc3cccc(C(F)(F)F)c3)cc(=O)n2c1C1CC1CO (centres unmarked); 5.69

---

Some compounds, each annotated with its measured log10 EC50.
target: HEK cells stably transfected with tetracycline inducible hNR1 and hNR2A (Homo sapiens, UniProt Q05586+Q12879); construct: expressed in transfected cells; host or cells: HEK cells, stably transfected, tetracycline/doxycycline inducible; experiment: Assay 1: Cell-Based Assay, cytosolic calcium response to positive allosteric modulators (with 30 μM glycine and 300 nM L-glutamate, EC30); settings: Table 2; cytosolic calcium response, with 30 μM glycine and 300 nM L-glutamate (EC30); — = no plateau was reached
PROPERTY MEASURED: log10 EC50 (log10 of the value in µM)

1. Cc1sc2nc(Cn3nc(C(F)(F)F)cc3CCO)cc(=O)n2c1[C@@H]1C[C@H]1CO (relative stereo); -0.08
2. CC(=O)c1c(C)sc2nc(Cc3cccc(C#N)c3F)cc(=O)n12; 1.46
3. CCNC(=O)c1c(C)sc2nc(Cc3cc(C#N)ccc3Cl)cc(=O)n12; 1.66
4. CCN(Cc1cc(=O)n2c(C)c(C)sc2n1)c1ccc(F)cc1; 0.41
5. Cc1sc2nc(Cc3cccc(C#N)c3F)cc(=O)n2c1C1CC1; 1.18
6. CCNC(=O)c1c(C)sc2nc(Cc3cccc(C#N)c3F)cc(=O)n12; 1.09
7. CCN(Cc1cc(=O)n2c(CCOC)c(C)sc2n1)c1ccc(F)cc1; 0.00
8. Cc1sc2nc(Cc3cccc(C(F)(F)F)c3)cc(=O)n2c1[C@@H]1C[C@H]1CO (relative stereo); 1.38

The measurements presented in this section are drawn from patent US9988400B2.
